Cited source for all entries: paper PMC12376074

PROTOCOL DETAILS: MTT cell viability assay, CYP3A4 cells
Assay type: cell-based
TEST SETTINGS: human, HepG2 cells overexpressing CYP3A4, IC50, CYP3A4 overexpressing cells, ADQ 3.13–50 μM, no CYP inhibitor
TEST READOUT: IC50 at 48 h (µM)
Unit µM implied. Number only.

*Q* I am curious: what IC50 at 48 h value has been reported for `CCN(CC)Cc1cc(Nc2ccnc3cc(Cl)ccc23)ccc1O` ?
*A* 14.8

* * *

PROTOCOL DETAILS: MTT cell viability assay, CYP2C8 cells
Assay type: cell-based
TEST SETTINGS: human, HepG2 cells overexpressing CYP2C8, IC50, CYP2C8 overexpressing cells, ADQ 1.56–50 μM
TEST READOUT: IC50 at 48 h

*Q* I am curious: what IC50 at 48 h value has been reported for `CCN(CC)Cc1cc(Nc2ccnc3cc(Cl)ccc23)ccc1O` ?
*A* 11.7 µM

* * *

PROTOCOL DETAILS: MTT cell viability assay, CYP1B1 cells
Format: cell-based
TEST SETTINGS: human, HepG2 cells overexpressing human CYP1B1
TEST READOUT: IC50 at 48 h (µM)
Unit µM implied. Number only.

*Q* I am curious: what IC50 at 48 h value has been reported for `CCN(CC)Cc1cc(Nc2ccnc3cc(Cl)ccc23)ccc1O` ?
*A* 25.7

* * *

PROTOCOL DETAILS: MTT cell viability assay, CYP1A1 cells
Assay type: cell-based
TEST SETTINGS: human, HepG2 cells overexpressing CYP1A1
TEST READOUT: IC50 at 48 h (µM)
Unit µM implied. Number only.

*Q* I am curious: what IC50 at 48 h value has been reported for `CCN(CC)Cc1cc(Nc2ccnc3cc(Cl)ccc23)ccc1O` ?
*A* 26.4

* * *

PROTOCOL DETAILS: MTT cell viability assay, CYP1A2 cells
Type: cell-based
TEST SETTINGS: human, HepG2 cells overexpressing CYP1A2
TEST READOUT: IC50 at 48 h (µM)
Unit µM implied. Number only.

*Q* I am curious: what IC50 at 48 h value has been reported for CCN(CC)Cc1cc(Nc2ccnc3cc(Cl)ccc23)ccc1O [ADQ, Amodiaquine] ?
*A* 18.7

* * *

PROTOCOL DETAILS: MTT cell viability assay, CYP3A5 cells
Format: cell-based
TEST SETTINGS: human, HepG2 cells overexpressing CYP3A5
TEST READOUT: IC50 at 48 h (µM)
Unit µM implied. Number only.

*Q* I am curious: what IC50 at 48 h value has been reported for CCN(CC)Cc1cc(Nc2ccnc3cc(Cl)ccc23)ccc1O [ADQ, Amodiaquine] ?
*A* 17.1

* * *

PROTOCOL DETAILS: MTT cell viability assay, CYP vector cells
Assay type: cell-based
TEST SETTINGS: human, HepG2/CYP vector cells (empty-vector control), ADQ 1.56–50 μM
TEST READOUT: IC50 at 48 h (µM)
Unit µM implied. Number only.

*Q* I am curious: what IC50 at 48 h value has been reported for `CCN(CC)Cc1cc(Nc2ccnc3cc(Cl)ccc23)ccc1O` ?
*A* 17.1
